Each recorded value in this set is attributed to the supplement of paper PMC10567573.

B1: FBXO3 (parent)
chain: GGFPIIRDQIFRYVHDPECVATTG

- Variants of: B1
- Protocol summary: protein stability index of a GFP-peptide fusion (GPS, HEK-293T) (PSI 1-6); higher = more stable;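 further: lentivirally expressed fusions sorted by FACS into six bins by GFP to DsRed ratio, PSI derived from sequencing read proportions per bin multiplied by bin number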
- Test context: c terminus: a fixed tail appended
Assign class by protein stability index: not lower than 2 means 1; lower than 2 means -1.

Use the examples below as a reference point.
[[record]]
alteration = "V14M"
cat = 1

[[record]]
alteration = "G24S"
cat = -1

[[record]]
alteration = "G1Y"
cat = -1

[[record]]
alteration = "C19R"
cat = -1

[[record]]
alteration = "G24T"
cat = 1


Record Q9C ; criterion: protein stability index no lower than 2. Met?
-1

Record I5E ; criterion: protein stability index no lower than 2. Met?
1

Record R7S ; criterion: protein stability index no lower than 2. Met?
1

Record I6E ; criterion: protein stability index no lower than 2. Met?
1
